Reported % inhibition of farnesyltransferase is given for each of the following compounds.
Target: protein farnesyltransferase (Rattus norvegicus, UniProt Q02293+Q04631)
Construct: Rat brain protein farnesyltransferase activity is measured; from tissue; host or cells: rat brain; purified according to Reiss et al., Cell 62:81-88 (1990), steps one through three
Assay: in vitro inhibition of protein farnesyltransferase (scintillation proximity assay, biotin-K Ras B fragment)
Format: biochemical
Conditions: at 1 × 10^-6 M
All answers are understood in %, so give the number only.

Example cases with answers are listed next.
# Compound, % inhibition of farnesyltransferase [%]
data = [
    ("CSCC[C@H](NC(=O)c1ccc(CSCc2ccc(C)cc2)cc1-c1ccccc1C)C(=O)[O-].[Li+] [Example 556]", 99),
    ("CSCC[C@H](NC(=O)c1ccc(C[C@H]2CC[C@@H](c3ccccc3)CC2)cc1-c1ccccc1C)C(=O)O [Example 790]", 88),
    ("CSCC[C@H](NC(=O)c1ccc(OCCC2CCCCC2)cc1-c1ccccc1C)C(=O)[O-].[Li+] [Example 552]", 88),
    ("CSCC[C@H](NC(=O)c1ccc(S(=O)(=O)NC2CCN(Cc3ccccc3)CC2)cc1-c1ccccc1C)C(=O)O [Example 773]", 41),
    ("Cc1ccccc1-c1cc(CN(C2CC2)C2(CC3CCCCC3)CCCC2)ccc1C(=O)N[C@@H](CCS(C)(=O)=O)C(=O)O [Example 346]", 98),
    ("CSCC[C@H](NC(=O)c1ccc(OC/C=C(\\C)CC/C=C(\\C)CCC=C(C)C)cc1-c1ccccc1C)C(=O)O [Example 547]", 91),
    ("CSCC[C@H](NC(=O)c1ccc(CCCC(=O)c2ccc3ccccc3c2)cc1-c1ccccc1C)C(=O)O [Example 473]", 96),
    ("CSCC[C@H](NC(=O)c1ccc(CSC2CCCCC2)cc1-c1ccccc1C)C(=O)[O-].[Li+] [Example 550]", 96),
    ("CSCC[C@H](NC(=O)c1ccc(/C=C/c2cncnc2)cc1-c1ccccc1C)C(=O)O [Example 494]", 96),
    ("CSCC[C@H](NC(=O)c1ccc(CCc2ccc3ccccc3c2)cc1-c1ccccc1C)C(=O)O [Example 468]", 96),
]

**Q:** Need % inhibition of farnesyltransferase, item CSCC[C@H](NC(=O)c1ccc(CN(C(C)C)C2(Cc3ccccc3)CC2)cc1-c1ccccc1C)C(=O)O [Example 325]
**A:** 99

**Q:** Need % inhibition of farnesyltransferase, item CSCC[C@H](NC(=O)c1ccc(COCc2cccs2)cc1-c1ccccc1C)C(=O)[O-].[Li+] [Example 273]
**A:** 96

**Q:** Need % inhibition of farnesyltransferase, item CSCC[C@H](NC(=O)c1ccc(OCCCOc2ccccc2)cc1-c1ccccc1C)C(=O)O [Example 566]
**A:** 98

**Q:** Need % inhibition of farnesyltransferase, item CSCC[C@H](NC(=O)c1ccc(-c2ccccc2-c2ccccc2)cc1-c1ccccc1C)C(=O)[O-].[Li+] [Example 786]
**A:** 34
